assay: binders of probe aFST on microarray, primary screen, stem cell growth factor project, biochemical, small-molecule microarray, fluorescence 635/667 (AID 1086); conditions: higher = more signal;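 also: score merges 667 nm fluorescence with signal-to-noise of each printed compound spot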
reported-property: composite z-score

Entry C=CCNC(=O)[C@H]1[C@@H]2C(=O)O[C@@H](c3ccccc3)[C@@H](c3ccccc3)N2[C@@H](c2ccc(O)cc2)[C@]12C(=O)N(C(=O)OCCOC)c1ccc(C#Cc3ccc(OC)cc3)cc12 , composite z-score reported as 0.307

====

composite z-score reference
assay: small-molecule binders of probe aNOTCH3, primary screen, biochemical, small-molecule microarray, 635/667 nm fluorescence (AID 1120); conditions: higher = more signal;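 also: probe is a biotin-tagged antibody raised against NOTCH3 rather than NOTCH3 protein; score merges spot fluorescence near 667 nm with spot signal to noise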

Solved cases (3 shown):
- compound: "CC(C)C[C@@H]1NC(=O)[C@@H]2C[C@H](C(=O)NCCCCCNC(=O)CS)[C@H](c3ccc(O)cc3)N2C1=O"
  composite z-score: -0.101
- compound: "COCCOC(=O)N1C(=O)[C@@]2(c3cc(C#CCCO)ccc31)[C@H](C(=O)N1CCN(c3ncccn3)CC1)[C@H]1C(=O)O[C@H](c3ccccc3)[C@H](c3ccccc3)N1[C@@H]2c1ccc(OCCO)cc1"
  composite z-score: 0.199
- compound: "CCCCC(=C=CC[C@@H](O)c1ccc(OCCO)cc1)CCO"
  composite z-score: -0.0947

Entry N#Cc1ccc(NN2C(C(O)c3ccc(B(O)O)cc3)C=CC3CN(c4ccccc4)C(=O)C32)cc1 (centres undefined) , composite z-score reported as -0.128

Entry CCOC(=O)C[C@H]1[C@H](OC(=O)c2ccccc2-c2ccccc2)[C@@H](NC(=O)CC(C)C)c2cc(OCCCO)ccc2N1C(=O)c1ccccc1 , composite z-score reported as -0.0406

Entry C=CC[C@]1(C(=O)NCCN2CCOCC2)N=C(c2ccc(OCCCO)cc2)O[C@H]1c1ccccc1 , composite z-score reported as 0.0813

Entry C=C(COC)C(=O)CC[C@H](OC(C)=O)c1ccccc1OCCO , composite z-score reported as -0.0343

Entry CCc1cccc(NC(=O)O[C@H]2[C@H](OC(=O)Nc3ccccc3-c3ccccc3)[C@H](OC(=O)Nc3ccccc3-c3ccccc3)[C@@H](OC)O[C@@H]2CO)c1 , composite z-score reported as 0.122

Entry COc1cc(CO)cc(I)c1O[C@H]1C=C(C(=O)NCCO)C[C@@H](N(CCN2CCOCC2)C(=O)C2CCCO2)[C@@H]1O (some centres undefined) , composite z-score reported as 0.0261
